# Test system: Aβ40-induced toxicity in differentiated PC-12 cells
# methodNotes: Aβ40-induced toxicity, MTT assay in differentiated PC-12 cells
# Assay type: cell-based
# conditionLabel: Rattus norvegicus, PC-12, 48 h, read-out: IC50, inhibition of Aβ40-induced toxicity

molecule: O=P(O)(O)Oc1c2c(c(OP(=O)(O)O)c3c1C1C[C@H]3c3cc4c(cc31)C1C[C@H]4c3ccccc31)[C@@H]1CC2c2cc3c(cc21)[C@@H]1CC3c2ccccc21 [TW1]
testedSystem: Aβ40-induced toxicity in differentiated PC-12 cells
IC50 [µM]: 7
